meta.source: patent US20220251562

Target: CD3 epsilon/gamma heterodimer (Homo sapiens, UniProt P07766;P09693 P07766:23-126,P09693:23-116)
Sequence (P07766 23-126, chain 1 of 2): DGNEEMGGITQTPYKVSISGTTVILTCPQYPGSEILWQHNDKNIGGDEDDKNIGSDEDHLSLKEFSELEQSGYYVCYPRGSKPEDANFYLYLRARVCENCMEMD
Sequence (P09693 23-116, chain 2 of 2): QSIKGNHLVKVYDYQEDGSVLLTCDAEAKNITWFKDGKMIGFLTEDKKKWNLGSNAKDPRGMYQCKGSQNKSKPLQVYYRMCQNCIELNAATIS
Assay: SPR; steady state; kinetic fits 5 nM (Table 3), 5.2 nM (Table 6), 119 pM (Table 8), 156 nM steady state (Table 9); SELEX buffer Mg Ca
Conditions: tags: C-terminal human IgG1 Fc fusion, AcroBiosystems; chain copies: heterodimer 1:1 (inferred); label: 5'-biotin-TEG
attribute measured: Kd (nM)

- TTTCCGGGTGGGGGTTTGGCACCGGGCCTGGCGCAGGGATTCG (ssDNA) [CELTIC_1s]: 53
